Reported values of EC50 for individual entries
- Measured on: GLP-1 Receptor (Homo sapiens)
- Sequence (P43220 24-463, species assumed): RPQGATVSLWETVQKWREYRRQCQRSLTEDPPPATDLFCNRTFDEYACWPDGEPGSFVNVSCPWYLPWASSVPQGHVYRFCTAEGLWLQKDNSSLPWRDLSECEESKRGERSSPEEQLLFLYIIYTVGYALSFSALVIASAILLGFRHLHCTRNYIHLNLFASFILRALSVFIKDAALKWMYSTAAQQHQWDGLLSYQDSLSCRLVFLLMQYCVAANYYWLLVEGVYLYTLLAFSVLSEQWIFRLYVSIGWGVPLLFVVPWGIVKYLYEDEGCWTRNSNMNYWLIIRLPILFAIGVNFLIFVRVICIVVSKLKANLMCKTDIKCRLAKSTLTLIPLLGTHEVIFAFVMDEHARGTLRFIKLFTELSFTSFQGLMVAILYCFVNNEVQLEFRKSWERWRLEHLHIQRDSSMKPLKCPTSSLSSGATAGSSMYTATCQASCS
- Measurement notes: GLP-1R agonist cAMP stimulation assay (HEK293/GLP1R/CRE-LUC cells, cAMP dynamic 2 Kit)
- Experimental context: HEK293/CRE-Luc cell line stably expressing the GLP-1 Receptor, 30 min at 37° C.
Readout kind: EC50 (nM)

molecule="Fc1cc(Cl)ccc1COc1cccc(C2=CCN(Cc3nc4cc(-c5nnc(C(F)(F)F)[nH]5)ncc4n3C[C@@H]3CCO3)CC2)c1 [Compound 307a]" measured_on="GLP-1 Receptor (Homo sapiens)" readout_kind=EC50 unit_tag=nM value_observed=0.26
molecule="CC1(c2ccc(Cl)cc2F)Oc2cccc(C3CCN(Cc4nc5cc(-c6noc(=O)[nH]6)cnc5n4C[C@H]4CCCO4)CC3)c2O1 (stereo partly drawn) [Compound 399a]" measured_on="GLP-1 Receptor (Homo sapiens)" readout_kind=EC50 unit_tag=nM value_observed=17
molecule="O=C(CC1CC1)Nc1ccc2c(c1)nc(CN1CCC(c3cccc(OCc4ccc(Cl)cc4F)n3)CC1)n2C[C@@H]1CCO1 [Compound 106a]" measured_on="GLP-1 Receptor (Homo sapiens)" readout_kind=EC50 unit_tag=nM value_observed=1.19
